# MEASURED_TARGET: ~100 representative kinases (Homo sapiens, UniProt O14965)
# Construct: Recombinant protein kinase domains with a concentration of 2 μM
# Sequence (O14965 1-403): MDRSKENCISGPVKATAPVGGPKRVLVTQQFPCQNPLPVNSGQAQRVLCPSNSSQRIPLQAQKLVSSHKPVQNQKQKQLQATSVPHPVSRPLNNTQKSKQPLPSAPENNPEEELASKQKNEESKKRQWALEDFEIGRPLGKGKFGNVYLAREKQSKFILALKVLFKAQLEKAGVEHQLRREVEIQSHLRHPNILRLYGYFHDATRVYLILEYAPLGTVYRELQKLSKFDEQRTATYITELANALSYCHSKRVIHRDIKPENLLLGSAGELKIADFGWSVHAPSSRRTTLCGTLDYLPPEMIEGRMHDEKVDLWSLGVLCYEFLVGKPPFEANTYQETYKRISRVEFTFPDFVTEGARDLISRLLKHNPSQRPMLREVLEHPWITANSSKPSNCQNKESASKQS
# ASSAY_METHOD_TEXT: DSF 100 kinase selectivity screen;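 for dTm: compound tested at 20 µM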
# Assay type: binding
# MEASUREMENT_CONDITIONS: Protein STK6; DSF; average of three replicates
Lab note: anything with dTm below 6 K is marked met; values at 6 K or higher are marked not met.

>  <COMPOUND>
O=C(Nc1cc(F)cc(Br)c1)C1(C(=O)Nc2cccc(-c3c[nH]c4ncnc(N5CCOCC5)c34)c2)CC1 [Compound 27]

>  <MEASURED_TARGET>
~100 representative kinases (Homo sapiens, UniProt O14965)

>  <LABEL_VALUE>
met

$$$$
>  <COMPOUND>
Cc1ccc(-n2nc(C(C)(C)C)cc2NC(=O)Nc2cccc(-c3c[nH]c4ncnc(N5CCOCC5)c34)c2)cc1 [Compound 29]

>  <MEASURED_TARGET>
~100 representative kinases (Homo sapiens, UniProt O14965)

>  <LABEL_VALUE>
met

$$$$
>  <COMPOUND>
CC(C)(C)c1cc(NC(=O)Nc2cccc(-c3c[nH]c4ncnc(N5CCOCC5)c34)c2)n(-c2ccc3ncccc3c2)n1 [Compound 28]

>  <MEASURED_TARGET>
~100 representative kinases (Homo sapiens, UniProt O14965)

>  <LABEL_VALUE>
met

$$$$
>  <COMPOUND>
O=C(Nc1cccc(-c2c[nH]c3ncnc(N4CCOCC4)c23)c1)C1(C(=O)Nc2cc(Br)c(F)cc2F)CC1 [Compound 25]

>  <MEASURED_TARGET>
~100 representative kinases (Homo sapiens, UniProt O14965)

>  <LABEL_VALUE>
not met

$$$$
>  <COMPOUND>
CCNc1nc(Nc2cc(F)c(C(=O)N3CCOCC3)cc2OC)ncc1C(F)(F)F [GNE-7915]

>  <MEASURED_TARGET>
~100 representative kinases (Homo sapiens, UniProt O14965)

>  <LABEL_VALUE>
met

$$$$
>  <COMPOUND>
Cc1ccc(NC(=O)C2(C(=O)Nc3cccc(-c4c[nH]c5ncnc(N6CCOCC6)c45)c3)CC2)cc1 [Compound 14]

>  <MEASURED_TARGET>
~100 representative kinases (Homo sapiens, UniProt O14965)

>  <LABEL_VALUE>
not met

$$$$

* * *

# MEASURED_TARGET: ~100 representative kinases (Homo sapiens, UniProt P49759)
# Construct: Recombinant protein kinase domains with a concentration of 2 μM
# Sequence (P49759 whole entry, the tested form may be a part): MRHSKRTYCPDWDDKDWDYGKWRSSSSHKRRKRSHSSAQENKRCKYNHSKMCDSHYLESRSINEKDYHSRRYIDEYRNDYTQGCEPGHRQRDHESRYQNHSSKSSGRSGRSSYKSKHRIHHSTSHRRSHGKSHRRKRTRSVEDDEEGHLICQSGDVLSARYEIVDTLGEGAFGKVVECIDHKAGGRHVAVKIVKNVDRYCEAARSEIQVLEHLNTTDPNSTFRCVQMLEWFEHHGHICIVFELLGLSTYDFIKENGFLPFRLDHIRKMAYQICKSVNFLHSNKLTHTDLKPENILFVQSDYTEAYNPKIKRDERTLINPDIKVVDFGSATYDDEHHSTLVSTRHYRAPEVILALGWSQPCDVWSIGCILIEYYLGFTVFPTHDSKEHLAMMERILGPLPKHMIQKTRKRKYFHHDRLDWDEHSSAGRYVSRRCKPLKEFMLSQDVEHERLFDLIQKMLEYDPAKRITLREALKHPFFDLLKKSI
# ASSAY_METHOD_TEXT: DSF 100 kinase selectivity screen;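 for dTm: compound tested at 20 µM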
# Type: binding
# MEASUREMENT_CONDITIONS: Protein CLK1; average of three replicates
Binary classification by dTm, with 8 K as an inclusive lower bound for MET; all other cases are NOT MET.

>  <SMILES_STRING>
Cc1ccc(-n2nc(C(C)(C)C)cc2NC(=O)Nc2cccc(-c3c[nH]c4ncnc(N5CCOCC5)c34)c2)cc1

>  <LABEL_VALUE>
MET

$$$$
>  <SMILES_STRING>
COc1cc(S(C)(=O)=O)ccc1Nc1nc(N(C)C)c2c(Cl)c[nH]c2n1

>  <LABEL_VALUE>
NOT MET

$$$$
>  <SMILES_STRING>
O=C(Nc1cccc(-c2c[nH]c3ncnc(N4CCOCC4)c23)c1)c1cccn(-c2ccc(F)cc2)c1=O

>  <LABEL_VALUE>
MET

$$$$
>  <SMILES_STRING>
Cc1ccc(-n2nc(C(C)(C)C)cc2NC(=O)Nc2cccc(-c3c[nH]c4nc(Cl)nc(N5CCOCC5)c34)c2)cc1

>  <LABEL_VALUE>
MET

$$$$
>  <SMILES_STRING>
O=C(Nc1cccc(-c2c[nH]c3ncnc(N4CCOCC4)c23)c1)C1(C(=O)Nc2cccc3c2CCC3)CC1

>  <LABEL_VALUE>
NOT MET

$$$$
>  <SMILES_STRING>
O=C(Nc1ccc(Cl)cc1)C1(C(=O)Nc2cccc(-c3c[nH]c4ncnc(N5CCOCC5)c34)c2)CC1

>  <LABEL_VALUE>
MET

$$$$

* * *

# MEASURED_TARGET: ~100 representative kinases (Homo sapiens, UniProt P49759)
# Construct: Recombinant protein kinase domains with a concentration of 2 μM
# ASSAY_METHOD_TEXT: DSF 100 kinase selectivity screen;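 for dTm: compound tested at 20 µM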
# Format: binding
# MEASUREMENT_CONDITIONS: Protein CLK1; average of three replicates

>  <COMPOUND>
O=C(Nc1cccc(-c2c[nH]c3ncnc(N4CCOCC4)c23)c1)C1(C(=O)Nc2cc(Br)c(F)cc2F)CC1 [Compound 25]

>  <dTm>
4.99 K

$$$$
>  <COMPOUND>
CNC(=O)c1cc(Oc2ccc(NC(=O)Nc3cc(C(C)(C)C)nn3-c3ccc4ncccc4c3)c(F)c2)ccn1 [Rebastinib, reference compound]

>  <dTm>
15.99 K

$$$$
>  <COMPOUND>
Cn1cc(-c2c[nH]c3ncnc(N4CCOCC4)c23)cc1C#N [PFE-360]

>  <dTm>
7.59 K

$$$$
>  <COMPOUND>
O=C(Nc1cccc(-c2c[nH]c3ncnc(N4CCOCC4)c23)c1)C1(C(=O)Nc2ccc(F)c(Br)c2F)CC1 [Compound 26]

>  <dTm>
6.34 K

$$$$
>  <COMPOUND>
O=C(Nc1cccc(-c2c[nH]c3ncnc(N4CCOCC4)c23)c1)C1(C(=O)Nc2ccc(F)cc2F)CC1 [Compound 23]

>  <dTm>
7.21 K

$$$$
>  <COMPOUND>
Cc1ccc(C(=O)Nc2ccc(CN3CCN(C)CC3)c(C(F)(F)F)c2)cc1C#Cc1c[nH]c2ncnc(N3CCOCC3)c12 [Compound 1]

>  <dTm>
8.76 K

$$$$
>  <COMPOUND>
Cc1ccc(C(=O)Nc2ccc(CN3CCN(C)CC3)c(C(F)(F)F)c2)cc1C#Cc1cnc2[nH]ncc2c1 [GZD-824, reference compound]

>  <dTm>
7.80 K

$$$$

* * *

# Tested on: ~100 representative kinases
# ASSAY_METHOD_TEXT: DSF 100 kinase selectivity screen;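 for dTm: compound tested at 20 µM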
# Assay type: binding
# MEASUREMENT_CONDITIONS: number of proteins of the DSF panel with dTm >5K
Overview of reported # >5K across a group of compounds:

>  <COMPOUND>
Cn1cc(-c2c[nH]c3ncnc(N4CCOCC4)c23)cc1C#N [PFE-360]

>  <MEASURED_TARGET>
~100 representative kinases

>  <# >5K>
12

$$$$
>  <COMPOUND>
CC(C)(C)c1cccc(NC(=O)C2(C(=O)Nc3cccc(-c4c[nH]c5ncnc(N6CCOCC6)c45)c3)CC2)c1 [Compound 22]

>  <MEASURED_TARGET>
~100 representative kinases

>  <# >5K>
23

$$$$
>  <COMPOUND>
Cc1cc(F)ccc1NC(=O)C1(C(=O)Nc2cccc(-c3c[nH]c4ncnc(N5CCOCC5)c34)c2)CC1 [Compound 24]

>  <MEASURED_TARGET>
~100 representative kinases

>  <# >5K>
12

$$$$
>  <COMPOUND>
COc1cc(C(=O)N2CCOCC2)c(F)cc1Nc1nc(N(C)C)c2c(Cl)c[nH]c2n1 [Compound 36]

>  <MEASURED_TARGET>
~100 representative kinases

>  <# >5K>
14

$$$$
>  <COMPOUND>
O=C(Nc1cccc(-c2c[nH]c3ncnc(N4CCOCC4)c23)c1)C1(C(=O)Nc2ccc(F)c(Cl)c2)CC1 [Compound 18]

>  <MEASURED_TARGET>
~100 representative kinases

>  <# >5K>
36

$$$$
>  <COMPOUND>
Cc1ccc(NC(=O)C2(C(=O)Nc3cccc(-c4c[nH]c5ncnc(N6CCOCC6)c45)c3)CC2)cc1 [Compound 14]

>  <MEASURED_TARGET>
~100 representative kinases

>  <# >5K>
22

$$$$
>  <COMPOUND>
Cc1ccc(-n2nc(C(C)(C)C)cc2NC(=O)Nc2cccc(-c3c[nH]c4nc(Cl)nc(N5CCOCC5)c34)c2)cc1 [Compound 30]

>  <MEASURED_TARGET>
~100 representative kinases

>  <# >5K>
10

$$$$
